Details: buffer; pH 7.4; 200.0 µM
READOUT: log10 solubility kinetic (log10 of the value in µg/mL)
# values: log10(solubility kinetic), units µg/mL

{"COMPOUND": "COc1cccc(N=Cc2c(O)c3ccccc3oc2=O)c1", "MEASURED": 1.19}
{"COMPOUND": "COCc1c(C(=O)NCCc2ccc(OC(F)F)cc2)oc2ccccc12", "MEASURED": 1.13}
{"COMPOUND": "CCOc1ccc(-c2csc3nc[nH]c(=O)c23)cc1", "MEASURED": 1.28}
{"COMPOUND": "COc1ccc(-c2cc(=O)[nH]c(N3CCN(Cc4ccccc4)CC3)n2)cc1", "MEASURED": -0.10}
{"COMPOUND": "CNC(=O)Nc1ccc(C2SCCS2)cc1", "MEASURED": 1.30}
{"COMPOUND": "CC(=O)C1=C(c2ccccc2)NC(=O)NC1c1cccs1 (stereo not drawn)", "MEASURED": 1.45}
{"COMPOUND": "O=c1ncn(-c2cccc(Cl)c2)c2ccccc12", "MEASURED": 1.58}
{"COMPOUND": "O=C(CN1C(=O)c2ccccc2C1=O)c1ccc(F)cc1", "MEASURED": 1.60}
{"COMPOUND": "Cc1ccc(S(=O)(=O)N2CCN(C(=O)CN3C(=O)NC(C)(c4ccc(Cl)cc4)C3=O)CC2)c(C)c1 (stereo not drawn)", "MEASURED": 0.52}
{"COMPOUND": "Oc1c(CN2CCCCC2)cc(Br)c2cccnc12", "MEASURED": 1.53}

Qu. Recorded log10 solubility kinetic of CC1CC1C(=O)Nc1nc(-c2ccc(Cl)s2)cs1 (stereo not drawn) , please.
Ans. -0.22

Qu. Recorded log10 solubility kinetic of COc1ccc(C(=O)OCC(=O)Nc2ccc(Cl)cn2)cc1 , please.
Ans. 0.08

Qu. Recorded log10 solubility kinetic of O=C(COC(=O)c1ccc(S(=O)(=O)N2CCOCC2)cc1)Nc1ccccc1OC(F)F , please.
Ans. 0.68

Qu. Recorded log10 solubility kinetic of O=S(=O)(Oc1ccccc1)c1cccnc1 , please.
Ans. 1.47

Qu. Recorded log10 solubility kinetic of COc1ccccc1CN(C)C(=O)CN1C(=O)c2ccccc2C1=O , please.
Ans. 1.23

Qu. Recorded log10 solubility kinetic of Clc1ccc(Cc2ccccn2)cc1 , please.
Ans. 0.80

Qu. Recorded log10 solubility kinetic of CC1Cc2ccccc2N1Cc1cccc([N+](=O)[O-])c1 (stereo not drawn) , please.
Ans. 0.56

* * *

Settings: buffer; pH 7.4; 200.0 µM
Record Met whenever solubility kinetic is at 40 µg/mL or higher; record Not met when lower.

Solved cases below.
{"COMPOUND": "CC(=O)NCCc1c[nH]c2ccc(OCc3ccccc3)cc12", "LABEL VALUE": "Met"}
{"COMPOUND": "O=c1ccc2cc(S(=O)(=O)NCCCc3ccccc3)ccc2[nH]1", "LABEL VALUE": "Not met"}
{"COMPOUND": "O=C(Nc1cccc(O)c1)c1ccc(S(=O)(=O)N2CCCCCC2)cc1", "LABEL VALUE": "Not met"}
{"COMPOUND": "Cc1ccc2oc(Nc3nc(C)c(C)c(C)n3)nc2c1", "LABEL VALUE": "Not met"}

Qu. Hello, I need to know if Cc1ccc2nc(-c3ccccc3)c(-c3ccccc3)nc2c1 has measured solubility kinetic not below 40 µg/mL. Thanks!
Ans. Not met

Qu. Hello, I need to know if O=C(NNC(=O)c1ccc([N+](=O)[O-])cc1)c1ccc(NS(=O)(=O)c2cccs2)cc1 has measured solubility kinetic not below 40 µg/mL. Thanks!
Ans. Met

Qu. Hello, I need to know if COc1ccccc1-c1cc(C(=O)N2CCCc3ccccc32)no1 has measured solubility kinetic not below 40 µg/mL. Thanks!
Ans. Not met

Qu. Hello, I need to know if Cn1cc(C(=O)OCC(=O)NC2CCCC2)c2ccccc21 has measured solubility kinetic not below 40 µg/mL. Thanks!
Ans. Not met

Qu. Hello, I need to know if Cc1cccc[n+]1CC(=O)c1ccccc1.[Br-] has measured solubility kinetic not below 40 µg/mL. Thanks!
Ans. Met

Qu. Hello, I need to know if O=C(O)CC(Cc1ccc(Cl)cc1)C(=O)Nc1cc(Cl)ccc1Cl (stereo unspecified) has measured solubility kinetic not below 40 µg/mL. Thanks!
Ans. Met

Qu. Hello, I need to know if COc1cc(SC)ccc1C(=O)OCC(=O)NC(=O)NC(C)C has measured solubility kinetic not below 40 µg/mL. Thanks!
Ans. Not met

Qu. Hello, I need to know if COC(=O)c1c(C)[nH]c(C(=O)C(C)OC(=O)c2cnc(C)cn2)c1C (stereo unspecified) has measured solubility kinetic not below 40 µg/mL. Thanks!
Ans. Met

Reference for the values: PubChem BioAssay AID1996
